# System: Plasmodium falciparum NF54 stage V gametocytes
# protocol text: viability index relative to DMSO control (fraction); higher = less gametocyte killing
# run conditions: 2.5 µM, library set: Broad Institute DOS, incubation time: 72 h
Whole data set: some 9,900 compounds, median “viability index relative to DMSO control” near 1, cut for the lowest 2% near 0.85. For the sample, the lowest values were picked, then their nearest neighbours and some compounds at random.
endpoint: viability index

{"columns": ["line notation", "target or test system", "endpoint", "endpoint result"],
 "data": [
  ["C[C@@H]1CN([C@H](C)CO)C(=O)c2cccc(NC(=O)NC3CCCCC3)c2O[C@@H]1CN(C)Cc1ccc(C(F)(F)F)cc1", "Plasmodium falciparum NF54 stage V gametocytes", "viability index", 0.977],
  ["Cc1ccc(S(=O)(=O)Nc2cccc3c2O[C@H](CN(C)C(=O)Nc2ccc(C(F)(F)F)cc2)[C@@H](C)CN([C@H](C)CO)C3=O)cc1", "Plasmodium falciparum NF54 stage V gametocytes", "viability index", 1.02],
  ["C[C@@H]1CN([C@H](C)CO)C(=O)c2cccc(NC(=O)NC3CCCCC3)c2O[C@H]1CN(C)Cc1ccc(C(F)(F)F)cc1", "Plasmodium falciparum NF54 stage V gametocytes", "viability index", 1.01],
  ["CO[C@@H]1CN(C)C(=O)c2ccc(NC(=O)C3CC3)cc2OC[C@@H](C)N(C(C)=O)C[C@@H]1C", "Plasmodium falciparum NF54 stage V gametocytes", "viability index", 1.02]
]}

---

Entries and their viability index
# System: Plasmodium falciparum NF54 stage V gametocytes
# protocol text: viability index relative to DMSO control (fraction); higher = less gametocyte killing
# run conditions: 2.5 µM, library set: Broad Institute DOS, incubation time: 72 h
Whole data set: some 9,900 compounds, median “viability index relative to DMSO control” near 1, cut for the lowest 2% near 0.85. Shown is part of a subset that was picked to be rich in the lowest values.

{"columns": ["line notation", "target or test system", "viability index"],
 "data": [
  ["O=C(Nc1ccc(F)cc1)N1CC(=O)N2[C@H](CO)[C@H](c3ccc(C#Cc4cccnc4)cc3)[C@@H]2C1", "Plasmodium falciparum NF54 stage V gametocytes", 1.03],
  ["C/C=C/c1ccc([C@@H]2[C@H](CO)N3CCCCN(S(=O)(=O)c4ccc(OC)cc4)C[C@@H]23)cc1", "Plasmodium falciparum NF54 stage V gametocytes", 1.03],
  ["CN(C)CC(=O)N1[C@H](C#N)[C@H](c2ccc(C#CC3CCCCC3)cc2)[C@@H]1CO", "Plasmodium falciparum NF54 stage V gametocytes", 0.981],
  ["OC[C@@H]1[C@H](c2ccc(C3=CCCC3)cc2)[C@H]2CN(Cc3ccncc3)CCCCN12", "Plasmodium falciparum NF54 stage V gametocytes", 1.05],
  ["COc1ccc([C@@H]2C/C=C\\C[C@H](c3ccc(F)cc3)NC(=O)CCC(=O)N2)c(OC)c1", "Plasmodium falciparum NF54 stage V gametocytes", 1.01],
  ["Cc1noc(C)c1NC(=O)N1C[C@@H](O)COC[C@@H]2O[C@H](CC(=O)N3CCc4ccccc4C3)CC[C@H]21", "Plasmodium falciparum NF54 stage V gametocytes", 1.08],
  ["O=C(C1CCOCC1)N1CC(=O)N2[C@H](C1)[C@H](c1ccc(C#CC3CCCCC3)cc1)[C@@H]2CO", "Plasmodium falciparum NF54 stage V gametocytes", 1.03],
  ["O=C(Nc1cccc(F)c1)N1CCCCN2[C@H](C1)[C@@H](c1ccc(C#Cc3cccnc3)cc1)[C@@H]2CO", "Plasmodium falciparum NF54 stage V gametocytes", 0.81],
  ["CCCNC(=O)N1[C@H](CO)[C@H](c2ccc(C#Cc3cccc(F)c3)cc2)[C@@H]1C#N", "Plasmodium falciparum NF54 stage V gametocytes", 1.09],
  ["OC[C@@H]1[C@@H](c2ccc(-c3cccnc3)cc2)[C@@H]2CN(Cc3ccccn3)CCCCN12", "Plasmodium falciparum NF54 stage V gametocytes", 0.737],
  ["O=C(C[C@H]1CC[C@H]2[C@@H](COC[C@H](O)CN2Cc2nccs2)O1)N1CCC(Cc2ccccc2)CC1", "Plasmodium falciparum NF54 stage V gametocytes", 1.03],
  ["CN(C)CC(=O)N1[C@H](C#N)[C@@H](c2ccc(C#CC3CCCCC3)cc2)[C@H]1CO", "Plasmodium falciparum NF54 stage V gametocytes", 1.05],
  ["O=C(Nc1ccc(F)cc1)N1CC(=O)N2[C@H](CO)[C@H](c3ccc(C#Cc4cccnc4)cc3)[C@H]2C1", "Plasmodium falciparum NF54 stage V gametocytes", 1.1],
  ["COc1ccc(CN(C)C[C@@H]2OCc3cnnn3CCCC(=O)N([C@H](C)CO)C[C@@H]2C)cc1", "Plasmodium falciparum NF54 stage V gametocytes", 0.963],
  ["N#C[C@@H]1[C@H](c2ccc(-c3cccc(F)c3)cc2)[C@H](CO)N1C(=O)NC1CCCC1", "Plasmodium falciparum NF54 stage V gametocytes", 0.743],
  ["OC[C@H]1[C@@H](c2ccc(-c3cccc(F)c3)cc2)[C@@H]2CN(Cc3cncnc3)CCCCN12", "Plasmodium falciparum NF54 stage V gametocytes", 0.963],
  ["CCCNC(=O)N1[C@H](C#N)[C@@H](c2ccc(C#Cc3cccc(F)c3)cc2)[C@@H]1CO", "Plasmodium falciparum NF54 stage V gametocytes", 0.981]
]}
